Recorded GI50 values for a group of molecules are listed next.
Test system: M14 melanoma
Assay: NCI tumour cell line growth inhibition, 48 h

Known results for molecules:
                                   molecule  quantity  resultvalue
0  C=C(C(=O)c1ccccc1)C(NC(C)(C)C)c1ccccc1 (stereo not drawn)      GI50      1.87 µM
1                      O=C(Cc1cc(O)ccc1O)NO      GI50     > 100 µM
2  CS(=O)(=O)Nc1cc(-c2ccc3ncc(C#N)c(Nc4ccc(F)c(Cl)c4)c3c2)cnc1Cl      GI50     0.193 µM
3                 NC(=O)c1c[nH]c2ncnc(N)c12      GI50      47.9 µM
4  CCCCCCCCCN=C(N)c1ccc(N2CCN(c3ccc(C(N)=NCCCCCCCCC)cc3)CC2)cc1      GI50      3.09 µM

**Query** Please give the measured GI50 for this molecule: `O=C(O)c1ccc(CSc2nc3ccccc3[nH]2)cc1`
**Result** > 100 µM

**Query** # input molecule: `CCOC(=O)c1c(C)n([O-])c2cc(F)c(F)cc2[n+]1=O` ; wanted: its GI50
**Result** 1.09 µM

**Query** // lookup GI50 for `Cc1ccc2ncnc(N(C)C3CCCCC3)c2c1`
**Result** 24.3 µM

###

Tested on: NCI-H522 lung
Experiment: NCI tumour cell line growth inhibition, 48 h; in the data active = GI50 below about 0.43 µM; inactive = the rest
Hi! Could you answer with just one of these? Y (active), N (inactive)

>>> df
                                   molecule  cat
0  CCCCCOC(=O)Nc1nc(=O)n(C2OC(C)C(O)C2O)cc1F (centres undefined)    N
1  CS(=O)(=O)N1CCC(Nc2ncc(C(=O)c3c(F)cccc3F)c(N)n2)CC1    N
2  CC(=O)Oc1ccc(C2OC(c3ccc4ccccc4c3OC(C)=O)=NN2C(C)=O)c(OC(C)=O)c1 (centres undefined)    Y

**Query** Recorded test outcome, item CC(=O)OC(C(=O)[O][Ge]([CH3])([CH3])[CH3])c1ccccc1 (centres undefined)
**Result** N

**Query** State the result this test recorded for `CC(C)n1cc(-c2ccc3c(c2)N(C)CC3)c2c(NS(=O)(=O)c3ccn(C)n3)ccnc21` .
**Result** N

**Query** What outcome does the record of this test show for `CCCCCCCCCCCCCCCC(=O)NS(=O)(=O)OC[C@H]1O[C@@H](n2cnc3c(N)ncnc32)[C@H](O)[C@@H]1O` ?
**Result** Y

**Query** Given `CC1(C)CC[C@]23CC[C@]4(C)[C@H](CC[C@@H]5[C@@]6(C)CCCNC(C)(C)[C@@H]6CC[C@]54C)[C@H]2[C@H]1OC3` , state the outcome it received in this test.
**Result** N

**Query** What did this assay record as the result for Cc1ccc(C2=NN(c3ccc(S(=O)(=O)NC(=O)NCc4ccccc4)cc3)C(c3ccc(N(C)C)cc3)C2)c(C)c1 (centres undefined) ?
**Result** N

**Query** Can you look up the reported call for `Cn1cc(-c2csc(-c3ccccc3)n2)c2cccnc21` for me?
**Result** N

###

Test system: U251 CNS
Assay: NCI tumour cell line growth inhibition, 48 h
quantity: TGI (µM)
// units = µM; emit number, no label

Below: 3 compounds and their reported TGI.
                                   compound  quantity  resultvalue
0  CC(=O)OC(COc1ccc2c(c1)[n+]([O-])nc(N)[n+]2[O-])CN1CCCCC1 (centres undefined)       TGI           43
1  CCCCCN1C(=O)C(Cc2ccccc2)N=C(c2ccc(O)cc2)c2cc(Cl)ccc21 (centres undefined)       TGI         27.2
2  O=C(/C=C(/C=C/c1cccc2[nH]ccc12)OB(F)F)/C=C/c1cccc2[nH]ccc12       TGI         1.83

**Query** What value of measured TGI is listed for `[O-]c1c2c(nn1-c1ccc(F)cc1)c1ccccc1c[n+]2Cc1ccccc1` ?
**Result** 33.4

**Query** Any idea what its TGI is? The compound is COc1ccc2c(c1)OCC1c3cc(OC)c4ccccc4c3OC21 (centres undefined)
**Result** 67

**Query** I would be grateful if you could share the reported TGI for C=C(C(=O)c1ccccc1)C(NC(C)(C)C)c1ccccc1 (centres undefined) .
**Result** 6.21

**Query** Recorded TGI for `Nc1nc(N)c2cc(S(=O)(=O)c3ccc4ccccc4c3)ccc2n1` , please?
**Result** 23.6

**Query** Consider the compound CC1(C=O)CC(CCc2ccccc2)NC1Cc1ccc(O)cc1 (centres undefined) and give its measured TGI.
**Result** 26.5

**Query** // TGI lookup, key: `COC1(OC)CCN(Cc2ccccc2)C1=O`
**Result** 34.1

**Query** // returns reported TGI for input CC(C)(C)N1CC1CNC(=O)C(=O)NCC1CN1C(C)(C)C (centres undefined)
**Result** 7.29

**Query** Given the entry CCCCCCCCCCCCC(O)C1CCC(C(O)CCCCC(O)CCCCCC2CC(CC(C)=O)C(=O)O2)O1 (centres undefined) , report its measured TGI.
**Result** 18.2

**Query** Return reported TGI; argument: `CSC1=CC(=O)c2ccccc2C1=O`
**Result** 23.8

**Query** What value of TGI has been reported for the following compound? `CCOC(=O)c1c(C)n([O-])c2cc(F)c(F)cc2[n+]1=O`
**Result** 3.04

**Query** What TGI value was documented for this compound, `COc1cccc2nc(Nc3cccc(NC(=O)c4ccc(N5CCN(C)CC5)c(C(F)(F)F)c4)c3)ccc12` ?
**Result** 1.68

**Query** TGI for `COc1ccccc1CNCCCN1C(=O)c2ccc3c4c(ccc(c24)C1=O)C(=O)N(CCCNCCCCNCCCN)C3=O` ?
**Result** 1.3
